The entries below come with measured pIC50 values attached.
target: Humanized mouse Aurora A (amino acids 107-403) (Mus musculus); assay: Aurora A kinase assay (IMAP fluorescence polarization, FAM-PKAtide, 10 μM ATP); assay type: biochemical; settings: Table 4; purified resynthesized molecule; read-out: Resynthesized Hit/Analog IC50
Remember the convention: pIC50 equals -log10 of concentration in molar.

COc1ccc(C(=O)Nc2ccccc2)cc1NC(=O)CCSc1ncnc(N)c1Br 6.92
Nc1ncnc(NCCc2cnc(NC(=O)Nc3cccc(C(F)(F)F)c3)s2)c1Br 8.30
COc1ccc(C(=O)Nc2ccccc2)cc1NC(=O)CCSCc1cnc2[nH]ccc2c1 6.82

API: the following record is the query input.
Prompt: Complete the entry with pIC50 for O=C(NCCSc1ncnc2[nH]ccc12)Nc1ccc(C(=O)O)c(O)c1
Completion: 6.40

---

target: Humanized mouse Aurora A (amino acids 107-403) (Mus musculus, UniProt P97477); test: Aurora A kinase assay (IMAP fluorescence polarization, FAM-PKAtide, 10 μM ATP); format: biochemical; settings: Table 1; disulfide chemistry: bait, fragments, unpurified reaction mixtures and purified ligand; relative to concentration of fragment molecule; read-out: IC50
metric: IC50 (µM)
Quick note: give the figure in µM, leave out the unit.

Prompt: Complete the entry with IC50 for SCCNc1ncnc2ccsc12
Completion: 24

Prompt: Complete the entry with IC50 for NCCSSCCN [Cystamine, reference compound]
Completion: 55

Prompt: Complete the entry with IC50 for O=C(NCCSSCCNc1ncnc2ccsc12)Nc1cccc(C(F)(F)F)c1
Completion: 1.6

Prompt: Complete the entry with IC50 for NCCSSCCNC(=O)Nc1cccc(C(F)(F)F)c1
Completion: 30

---

Target: Humanized mouse Aurora A (amino acids 107-403) (Mus musculus, UniProt P97477)
Sequence (P97477 1-395 N164G/K218R/M280L): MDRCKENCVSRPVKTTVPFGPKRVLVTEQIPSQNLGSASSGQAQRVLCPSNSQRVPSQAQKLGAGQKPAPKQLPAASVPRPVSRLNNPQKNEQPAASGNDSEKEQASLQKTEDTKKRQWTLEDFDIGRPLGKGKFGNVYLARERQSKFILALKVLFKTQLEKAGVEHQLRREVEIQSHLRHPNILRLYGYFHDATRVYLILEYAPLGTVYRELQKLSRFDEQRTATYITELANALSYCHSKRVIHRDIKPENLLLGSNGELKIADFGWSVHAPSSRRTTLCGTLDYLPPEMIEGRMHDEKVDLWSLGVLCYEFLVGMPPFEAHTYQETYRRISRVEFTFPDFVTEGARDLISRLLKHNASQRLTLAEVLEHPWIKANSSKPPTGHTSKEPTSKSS
Experiment: Aurora A kinase assay (IMAP fluorescence polarization, FAM-PKAtide, 10 μM ATP)
Assay type: biochemical
Conditions: Table 5; bait, fragment and disulfide-assembled molecules; relative to concentration of fragment molecule; read-out: IC50
metric: IC50 (µM)
Quick note: give the figure in µM, leave out the unit.

Prompt: Complete the entry with IC50 for O=C(NCCCCCNc1ncnc2ccsc12)c1sc(C(F)(F)F)cc1O
Completion: 11.5

Prompt: Complete the entry with IC50 for CCCCNC(=O)c1cccc(NC(=O)CCCCCNc2ncnc3ccsc23)c1
Completion: 4.1

---

Target: Humanized mouse Aurora A (amino acids 107-403) (Mus musculus)
Sequence (P97477 1-395 N164G/K218R/M280L): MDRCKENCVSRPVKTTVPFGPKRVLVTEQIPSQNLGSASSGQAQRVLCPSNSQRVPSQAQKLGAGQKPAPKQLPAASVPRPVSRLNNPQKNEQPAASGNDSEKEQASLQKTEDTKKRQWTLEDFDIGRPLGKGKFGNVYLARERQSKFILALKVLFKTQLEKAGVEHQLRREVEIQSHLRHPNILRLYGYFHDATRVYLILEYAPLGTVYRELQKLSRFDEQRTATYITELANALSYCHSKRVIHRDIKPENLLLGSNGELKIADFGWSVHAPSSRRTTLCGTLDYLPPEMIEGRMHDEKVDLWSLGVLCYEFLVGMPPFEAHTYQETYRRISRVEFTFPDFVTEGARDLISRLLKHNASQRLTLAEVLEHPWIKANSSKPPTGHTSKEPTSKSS
Test: Aurora A kinase assay (IMAP fluorescence polarization, FAM-PKAtide, 10 μM ATP)
Assay type: biochemical
Conditions: Table 2; thioether chemistry: bait, test fragment, unpurified reaction mixtures and purified ligand; relative to concentration of fragment molecule; read-out: IC50
metric: pIC50
Remember the convention: pIC50 equals -log10 of concentration in molar.

Prompt: Report pIC50 under test system Humanized mouse Aurora A (amino acids 107-403) (Mus musculus) for Clc1ncnc2ccsc12 .
Completion: 4.55

Hey, just so you know, these numbers are from patent US10107798B2.
